Target: T1, monkey GFRα3 expressed with a C-terminal myc-myc-hexahistidine tag (monkey (Mf), UniProt O60609 32-374 (human entry), limits assumed)
T1 construct: also called MfGFRα3-mmh; MfGFRα3-mmH
T1 chain: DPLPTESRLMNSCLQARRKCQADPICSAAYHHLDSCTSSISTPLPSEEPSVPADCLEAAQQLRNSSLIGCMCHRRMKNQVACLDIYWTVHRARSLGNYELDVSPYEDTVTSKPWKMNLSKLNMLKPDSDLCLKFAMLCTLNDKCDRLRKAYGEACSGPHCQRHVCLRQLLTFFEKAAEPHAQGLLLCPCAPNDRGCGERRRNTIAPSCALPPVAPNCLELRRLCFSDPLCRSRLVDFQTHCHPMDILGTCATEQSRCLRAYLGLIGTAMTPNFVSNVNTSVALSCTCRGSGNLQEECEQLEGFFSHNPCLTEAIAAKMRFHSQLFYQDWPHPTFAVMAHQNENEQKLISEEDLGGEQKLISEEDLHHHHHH
Test: SPR, Ab captured, 25C

>  <binder>
H4H2292S (antibody, human IgG4, V domains shown, human IgG4 Fc (H4H)) VH: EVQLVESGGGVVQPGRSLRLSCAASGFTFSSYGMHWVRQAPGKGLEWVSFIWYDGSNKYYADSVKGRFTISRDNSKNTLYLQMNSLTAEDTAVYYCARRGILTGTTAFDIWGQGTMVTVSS VL: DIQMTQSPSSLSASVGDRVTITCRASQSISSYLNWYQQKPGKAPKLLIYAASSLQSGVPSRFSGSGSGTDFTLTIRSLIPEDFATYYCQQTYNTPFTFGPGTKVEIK

>  <unit.spec>
nM

>  <Kd>
1.57

$$$$
>  <binder>
H1M2243N (antibody, V domains shown, chimeric, human variable and mouse constant domains (H1M)) VH: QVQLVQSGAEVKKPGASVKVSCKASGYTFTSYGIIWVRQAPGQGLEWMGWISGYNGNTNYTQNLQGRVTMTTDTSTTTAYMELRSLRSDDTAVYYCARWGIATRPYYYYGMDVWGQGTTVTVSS VL: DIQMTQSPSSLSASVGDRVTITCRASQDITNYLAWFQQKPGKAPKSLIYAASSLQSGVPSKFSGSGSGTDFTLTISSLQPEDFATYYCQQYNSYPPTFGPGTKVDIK

>  <unit.spec>
nM

>  <Kd>
10.2

$$$$
>  <binder>
H4H2291S (antibody, human IgG4, V domains shown, human IgG4 Fc (H4H)) VH: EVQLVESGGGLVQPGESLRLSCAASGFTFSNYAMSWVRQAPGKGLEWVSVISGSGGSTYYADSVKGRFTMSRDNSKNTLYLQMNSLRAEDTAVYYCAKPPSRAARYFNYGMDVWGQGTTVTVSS VL: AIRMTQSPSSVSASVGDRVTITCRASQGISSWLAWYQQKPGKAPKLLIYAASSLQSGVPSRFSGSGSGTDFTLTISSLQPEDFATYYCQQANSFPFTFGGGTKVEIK

>  <unit.spec>
nM

>  <Kd>
1.85

$$$$
>  <binder>
H2aM2210N (antibody, mouse IgG2, V domains shown, chimeric, mouse IgG2 Fc (H2M/H2aM); also called H2M2210N) VH: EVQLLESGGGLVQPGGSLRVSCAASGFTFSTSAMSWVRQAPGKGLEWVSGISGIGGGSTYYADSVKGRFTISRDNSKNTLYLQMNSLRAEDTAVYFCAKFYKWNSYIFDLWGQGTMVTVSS VL: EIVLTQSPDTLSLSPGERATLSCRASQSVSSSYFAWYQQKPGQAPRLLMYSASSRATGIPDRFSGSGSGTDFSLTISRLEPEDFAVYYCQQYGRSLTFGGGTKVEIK

>  <unit.spec>
nM

>  <Kd>
28.9

$$$$
>  <binder>
H4H2342P (antibody, human IgG4, V domains shown, human IgG4 Fc (H4H)) VH: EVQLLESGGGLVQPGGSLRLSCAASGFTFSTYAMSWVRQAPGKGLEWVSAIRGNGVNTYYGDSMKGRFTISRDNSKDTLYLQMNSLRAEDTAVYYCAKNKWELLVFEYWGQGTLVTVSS VL: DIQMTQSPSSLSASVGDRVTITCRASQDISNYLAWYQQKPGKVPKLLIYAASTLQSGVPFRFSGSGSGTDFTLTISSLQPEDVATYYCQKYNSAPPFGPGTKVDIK

>  <unit.spec>
nM

>  <Kd>
5.87

$$$$

The reported measurements were obtained from patent US20140056903A1.
